Origin of the recorded values: patent US11124500B2

Assignment: determine reported IC50 for the given compounds.
# target_of_assay: human KHK-A (Homo sapiens (Human))
# Sequence (P50053 other isoform, or with tags, fused parts or gaps): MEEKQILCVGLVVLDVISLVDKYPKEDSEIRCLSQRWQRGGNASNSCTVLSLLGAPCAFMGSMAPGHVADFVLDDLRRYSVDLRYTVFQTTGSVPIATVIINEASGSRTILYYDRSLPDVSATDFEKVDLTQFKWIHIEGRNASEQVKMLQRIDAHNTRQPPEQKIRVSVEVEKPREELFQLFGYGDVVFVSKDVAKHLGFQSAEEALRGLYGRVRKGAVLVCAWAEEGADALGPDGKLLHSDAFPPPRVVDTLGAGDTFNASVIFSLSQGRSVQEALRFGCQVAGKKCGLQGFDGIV
# experiment_description: KHK enzyme activity assay, human KHK-A (F1P production, RapidFire MS)
# condition_set: fructose 1.25 mM, ATP 150 μM; average ± SEM; read-out: hKHK-A IC50

Solved cases (5 shown):
compound: C[C@H]1CCN1c1nc(-c2cnn(CC(=O)N(CCO)CCO)c2)cc(C(F)(F)F)c1C#N
target_of_assay: human KHK-A (Homo sapiens (Human))
IC50: 39.2 nM
//
compound: C[C@H]1CN(C(=O)Cn2cc(-c3cc(C(F)(F)F)nc(N4CC[C@@H]4C)n3)cn2)CCN1
target_of_assay: human KHK-A (Homo sapiens (Human))
IC50: 103 nM
//
compound: C[C@H]1CCN1c1nc(-c2cnn(CC(O)CO)c2)cc(C(F)(F)F)c1C#N (single isomer, unassigned; isomer 2) [Example 24b]
target_of_assay: human KHK-A (Homo sapiens (Human))
IC50: 6.75 nM
//
compound: C[C@H]1CCN1c1nc(-c2cnn(CC(=O)N3CCNC(C)(C)C3)c2)cc(C(F)(F)F)n1
target_of_assay: human KHK-A (Homo sapiens (Human))
IC50: 70.5 nM
//
compound: N#Cc1c(C(F)(F)F)cc(-c2cnn(C3CCNCC3)c2)nc1N1CC[C@@H]1CO
target_of_assay: human KHK-A (Homo sapiens (Human))
IC50: 15.4 nM

Give measured IC50 for every item shown.
1. C[C@H]1CCN1c1nc(-c2cnn(C3CCOCC3)c2)cc(C(F)(F)F)c1C#N
2. OC[C@H]1CCN1c1nc(-c2cnn([C@@H]3CCNC3)c2)cc(C(F)(F)F)n1
3. C[C@H]1CCN1c1nc(-c2cnn(C3CCNCC3)c2)cc(C(F)(F)F)n1
4. C[C@H]1CCN1c1nc(-c2cnn(C3CNC3)c2)cc(C(F)(F)F)c1C#N
5. C[C@H]1CCN1c1nc(-c2cnn(C3CCN(CCO)CC3)c2)cc(C(F)(F)F)c1C#N

1: 22.2 nM; 2: 30 nM; 3: 7.69 nM; 4: 13.2 nM; 5: 3.58 nM

Give measured IC50 for every item shown.
1. C[C@H]1[C@H](O)CN1c1nc(-c2cnn([C@@H]3CCNC3)c2)cc(C(F)(F)F)n1
2. C[C@H]1[C@H](O)CN1c1nc(-c2cnn(C3CN(C)C3)c2)cc(C(F)(F)F)n1

1. 19.1 nM
2. 1.59 nM

Give measured IC50 for every item shown.
1. C[C@H]1CCN1c1nc(-c2cnn(CC(O)CO)c2)cc(C(F)(F)F)c1C#N (single isomer, unassigned; isomer 1) [Example 24a]
2. C[C@H]1CCN1c1nc(-c2cnn(CCN(C)C)c2)cc(C(F)(F)F)c1C#N
3. C[C@H]1CCN1c1nc(-c2cnn(CC(=O)N3C[C@@H](O)[C@H](O)C3)c2)cc(C(F)(F)F)c1C#N

9.99 nM
246 nM
33.7 nM

Give measured IC50 for every item shown.
1. C[C@H]1CCN1c1nc(-c2cnn(C3CCN(C(=O)CN)CC3)c2)cc(C(F)(F)F)c1C#N
2. C[C@H]1CCN1c1nc(-c2cnn(CC(=O)N3CCNCC3)c2)cc(C(F)(F)F)n1
3. C[C@H]1CCN1c1nc(-c2cnn(CC(=O)N3CCN(C)CC3)c2)cc(C(F)(F)F)c1C#N

1. 35.6 nM
2. 24.2 nM
3. 81.8 nM

Give measured IC50 for every item shown.
1. C[C@H]1CCN1c1nc(-c2cnn(CC(O)CO)c2)cc(C(F)(F)F)c1C#N (some centres unmarked) [Example 24]
2. C[C@H]1CCN1c1nc(-c2cnn(C3CN(C)C3)c2)cc(C(F)(F)F)n1
3. C[C@H]1CCN1c1nc(-c2cnn(CC(=O)NCCN)c2)cc(C(F)(F)F)n1
4. C[C@@H]1CN(C(=O)Cn2cc(-c3cc(C(F)(F)F)nc(N4CC[C@@H]4C)n3)cn2)[C@@H](C)CN1

1. 7.29 nM
2. 5.41 nM
3. 51 nM
4. 41.5 nM

Give measured IC50 for every item shown.
1. C[C@H]1CNCCN1C(=O)Cn1cc(-c2cc(C(F)(F)F)nc(N3CC[C@@H]3C)n2)cn1
2. C[C@H]1CCN1c1nc(-c2cnn(C3CCNCC3O)c2)cc(C(F)(F)F)c1C#N (some centres unmarked)
3. C[C@H]1CCN1c1nc(-c2cnn(C3CCN(C)CC3)c2)cc(C(F)(F)F)c1C#N
4. C[C@H]1CCN1c1nc(-c2cnn(C3CNC3)c2)cc(C(F)(F)F)n1
5. C[C@H]1CCN1c1nc(-c2cnn(CCO)c2)cc(C(F)(F)F)c1C#N
6. C[C@H]1CCN1c1nc(-c2cn[nH]c2)cc(C(F)(F)F)c1C#N
7. C[C@H]1[C@H](O)CN1c1nc(-c2cnn([C@H]3CCNC3)c2)cc(C(F)(F)F)n1

1: 57.8 nM; 2: 4.63 nM; 3: 25.2 nM; 4: 3.63 nM; 5: 5.23 nM; 6: 16.9 nM; 7: 26.7 nM

Give measured IC50 for every item shown.
1. C[C@H]1[C@H](O)CN1c1nc(-c2cnn(C3CNC3)c2)cc(C(F)(F)F)n1
2. CN1CC(n2cc(-c3cc(C(F)(F)F)nc(N4CC[C@@H]4CO)n3)cn2)C1
3. C[C@H]1[C@H](O)CN1c1nc(-c2cnn(C3CCNCC3)c2)cc(C(F)(F)F)c1C#N

1: 11.4 nM; 2: 3.98 nM; 3: 6.02 nM
